Source of measurements: ChEMBL document CHEMBL3393045

Experiment: Half life in Sprague-Dawley rat at 3 mg/kg, iv
Format: ADME, organism-based
Design: dose 3 mg/kg, route intravenous
Settings: in vivo
quantity_name: half-life (h)
Use h as the unit, but write only the number.

Item "COC(=O)N[C@H](C(=O)N1C[C@@H](C)C[C@H]1c1ncc(-c2ccc(-c3ccc(-c4cc5[nH]c([C@@H]6C[C@H](C)CN6C(=O)[C@@H](NC(=O)OC)C(C)C)nc5s4)s3)cc2)[nH]1)C(C)C" has what recorded half-life?
6.7

----------
Measured CC50, listed per entry.
Assay: Cytotoxicity against human HuhET cells by [3H]thymidine incorporation assay
Assay type: cell-based

- compound_smiles: "COC(=O)N[C@H](C(=O)N1C[C@@H](C)C[C@H]1c1ncc(-c2ccc(-c3ccc(-c4cc5[nH]c([C@@H]6C[C@H](C)CN6C(=O)[C@@H](NC(=O)OC)C(C)C)nc5s4)s3)cc2)[nH]1)C(C)C"
  observed_measurement: "13.3 µM"
- compound_smiles: "COC(=O)N[C@H](C(=O)N1C[C@@H](C)C[C@H]1c1ncc(-c2ccc(-c3ccc(-c4cc5[nH]c([C@@H]6C[C@H](C)CN6C(=O)[C@@H](NC(=O)OC)C(C)C)nc5s4)cc3)cc2)[nH]1)C(C)C"
  observed_measurement: "> 20 µM"

Then this compound:
Item "COC(=O)N[C@H](C(=O)N1C[C@@H](C)C[C@H]1c1ncc(-c2ccc(-c3ccc(-c4cc5[nH]c([C@@H]6C[C@H](C)CN6C(=O)[C@@H](NC(=O)OC)C(C)C)nc5s4)cc3F)cc2)[nH]1)C(C)C" has what recorded CC50?
20 µM
